system: green foxtail (Setaria viridis, SETVI); assay: Post-emerge test, greenhouse herbicide activity screening; type: in vivo; details: 250 g ai/ha; phytotoxicity rating 0-100 (0 no damage, 100 complete death), 14 days after application
Measured Attribute: Post-emerge Herbicidal Activity SETVI

{"Compound": "C=CC(=O)N(C(=O)C=C)c1c(OC)c(Cl)cc(F)c1-n1c(=O)cc(C(F)(F)F)n(C)c1=O", "Post-emerge Herbicidal Activity SETVI": 0}
{"Compound": "COc1c(Cl)cc(F)c(-n2c(=O)cc(C(F)(F)F)n(C)c2=O)c1N(C(=O)C=C(C)C)C(=O)C=C(C)C", "Post-emerge Herbicidal Activity SETVI": 0}
{"Compound": "COc1c(Cl)cc(F)c(-n2c(=O)cc(C(F)(F)F)n(C)c2=O)c1N(C)C", "Post-emerge Herbicidal Activity SETVI": 50}
{"Compound": "COc1c(Cl)cc(F)c(-n2c(=O)cc(C(F)(F)F)n(C)c2=O)c1NC(=O)c1ccc(C)cc1", "Post-emerge Herbicidal Activity SETVI": 70}

Next:
Let me check: CCOC(=O)C(C)Oc1c(Cl)cc(F)c(-n2c(=O)cc(C(F)(F)F)n(C)c2=O)c1N (centres unmarked) , system green foxtail (Setaria viridis, SETVI), measured Post-emerge Herbicidal Activity SETVI is 10

###

Tested on: field corn (Zea mays L., var. Dekalb 535, CORN)
Assay: Pre-emerge test, crop safety
Format: in vivo
Conditions: 250 g ai/ha; pre-emerge; rated 14 days after application; 0 = no damage, 100 = complete death
Method: A standard greenhouse herbicide activity screening system was used to evaluate the herbicidal efficacy and crop safety of these test compounds. […] At 14 days after application of the test materials, phytotoxicity ratings were recorded. […]
Measured Attribute: Pre-emerge crop damage CORN (phytotoxicity rating, scale 0-100)
Output spec: single numeric token, no unit.

{"Smiles Str": "COc1c(Cl)cc(F)c(-n2c(=O)cc(C(F)(F)F)n(C)c2=O)c1N=CN(C)C", "Obs Value": 50}
{"Smiles Str": "COc1c(Cl)cc(F)c(-n2c(=O)cc(C(F)(F)F)n(C)c2=O)c1N(C(=O)C1CC1)C(=O)C1CC1", "Obs Value": 0}

Next:
Pre-emerge crop damage CORN (phytotoxicity rating, scale 0-100) reading for COc1c(Cl)cc(F)c(-n2c(=O)cc(C(F)(F)F)n(C)c2=O)c1NC(=O)c1ccc(C)cc1 : 98

###

molecules and their reported Pre-emerge phytotoxicity rating, crop damage RICE
test system: upland rice (Oryza sp., var. Tebonnet, RICE); experiment: Pre-emerge test, crop safety; format: in vivo; conditions: 250 g ai/ha; rating scale 0-100, 14 days after application
Output spec: single numeric token, no unit.

{"Molecule": "Nc1c(O)c(Cl)cc(F)c1N1C(=O)C2CCCCN2C1=S (single isomer, unassigned) [12-3]", "Obs Value": 20}

Pre-emerge phytotoxicity rating, crop damage RICE reading for COc1c(Cl)cc(F)c(-n2c(=O)cc(C(F)(F)F)n(C)c2=O)c1CC(C)(Cl)C(=O)OC(C)C (stereo not drawn) : 80

Pre-emerge phytotoxicity rating, crop damage RICE reading for COc1c(Cl)cc(F)c(-n2c(=O)cc(C(F)(F)F)n(C)c2=O)c1CC(Cl)C(=O)OCC(Br)CBr (single isomer, unassigned) [14-31] : 0
